Below, each entry is listed alongside its reported IC50.
- Test system: HT-1080
- PROCEDURE_SUMMARY: Antiproliferative activity against human HT-1080 cells transfected with empty vector assessed as cell growth inhibition incubated for 48 hrs by sulforhodamine B assay
- Format: functional, cell-based
- STUDY_CONDITIONS: HT-1080, 48 h
Record the value in µM, omitting the unit from your answer.

Worked cases, answers included:
COMPOUND	TEST_RESULT
COc1ccc(/C=C\c2cc(OC)c(OC)c(OC)c2)cc1O [COMBRETASTATIN A4]	0.0013
CCCCCN1CCN(c2ccc(S(=O)(=O)Oc3cc(OC)c(OC)c(OC)c3)cc2)C1=O	5.9
CCCCN1CCN(c2ccc(S(=O)(=O)Oc3cc(OC)c(OC)c(OC)c3)cc2)C1=O	0.82

Now take the following compound into account.
Provide IC50 value for the following compound: CCCCCN1CCN(c2ccc(S(=O)(=O)Oc3cc(OC)cc(OC)c3)cc2)C1=O
8.8

* * *

Below, each entry is listed alongside its reported IC50.
- Tested on: MCF7
- PROCEDURE_SUMMARY: Antiproliferative activity against human MCF7 cells expressing CYP1A1 assessed as cell growth inhibition incubated for 48 hrs by sulforhodamine B assay
- Assay type: functional, cell-based
- STUDY_CONDITIONS: MCF7, 48 h
Record the value in nM, omitting the unit from your answer.

CCCCCN1CCN(c2ccc(S(=O)(=O)Oc3cc(OC)cc(OC)c3)cc2)C1=O 600
CCCCCN1CCN(c2ccc(S(=O)(=O)Oc3cccc(OC)c3)cc2)C1=O 260
CCCCCCN1CCN(c2ccc(S(=O)(=O)Oc3cc(F)cc(F)c3)cc2)C1=O 400

Provide IC50 value for the following molecule: CCCCCN1CCN(c2ccc(S(=O)(=O)Oc3cc(OC)c(OC)c(OC)c3)cc2)C1=O
200

* * *

- PROCEDURE_SUMMARY: Stability in mouse liver microsomes assessed as intrinsic clearance incubated for 60 mins by HPLC analysis
- Assay type: ADME, Microsome
- STUDY_CONDITIONS: read-out: CLH
Below, each entry is listed alongside its reported log10 microsomal CLint.
Recorded microsomal CLint (log10, µL/min/mg)

Worked cases, answers included:
CCCCN1CCN(c2ccc(S(=O)(=O)Oc3cc(OC)c(OC)c(OC)c3)cc2)C1=O 1.89
CCCCN1CCN(c2ccc(S(=O)(=O)Oc3cc(Cl)cc(Cl)c3)cc2)C1=O 1.95
CCCCCN1CCN(c2ccc(S(=O)(=O)Oc3cccc(Cl)c3)cc2)C1=O 1.04
CCCCCN1CCN(c2ccc(S(=O)(=O)Oc3cccc(I)c3)cc2)C1=O 1.18
CCCCCN1CCN(c2ccc(S(=O)(=O)Oc3cc(OC)cc(OC)c3)cc2)C1=O 1.51
CCCCN1CCN(c2ccc(S(=O)(=O)Oc3cccc(Cl)c3)cc2)C1=O 2.02
CCCCN1CCN(c2ccc(S(=O)(=O)Oc3cccc(I)c3)cc2)C1=O 2.04
CCCCN1CCN(c2ccc(S(=O)(=O)Oc3cc(OC)cc(OC)c3)cc2)C1=O 2.12

Provide log10 microsomal CLint value for the following molecule: CCCCCN1CCN(c2ccc(S(=O)(=O)Oc3cc(Cl)cc(Cl)c3)cc2)C1=O
1.10

Provide log10 microsomal CLint value for the following molecule: CCCCCN1CCN(c2ccc(S(=O)(=O)Oc3cc(OC)c(OC)c(OC)c3)cc2)C1=O
1.87

Provide log10 microsomal CLint value for the following molecule: CCCN1CCN(c2ccc(S(=O)(=O)Oc3cc(OC)c(OC)c(OO)c3)cc2)C1=O
2.24
